Hi there, I'd appreciate the recorded melting point for every entry that follows.

>  <MOLECULE>
O=C(C1CCNCC1)N1CCc2ccccc21

>  <VALUE_MEASURED>
67 to 69 °C

$$$$

Lab note: each molecule below needs its melting point filled in.
1. COc1ccc(C(=O)NN)cc1Br
2. COc1ccc(S(=O)(=O)Cl)c(C)c1C
3. O=C(O)C=C1CCOCC1

1: 137 to 139 °C; 2: 84 to 86 °C; 3: 99 to 101 °C

Lab note: each molecule below needs its melting point filled in.
1. N#CCS(=O)(=O)c1ccc(C(=O)O)cc1
2. CC(C)(C)OC(=O)N1CCC(=O)C(Br)C1 (stereo unspecified)
3. Cc1cc(=O)nc2sc(N3CCNCC3)nn12
4. Nc1cccc(-c2ccc(=O)[nH]n2)c1
5. Cc1cc(Br)c(NC(=O)CCl)c(Br)c1
6. O=C1COc2ncc(Br)cc2N1
7. CNCc1c(C)nn(-c2ccccc2C)c1C
8. Cn1cnnc1Sc1ccc(C=O)cc1[N+](=O)[O-]

["236 to 238 °C", "95 to 97 °C", "234 to 236 °C", "206 to 208 °C", "177 to 178 °C", "256 to 258 °C", "41 to 43 °C", "171 to 173 °C"]

Lab note: each molecule below needs its melting point filled in.
1. N#Cc1ccc(OCC(=O)O)c(Cl)c1
2. NNC(=O)c1cc(F)ccc1Br

1: 178 to 180 °C; 2: 149 to 151 °C

Lab note: each molecule below needs its melting point filled in.
1. Cc1sc2nc(CC#N)[nH]c(=O)c2c1C
2. NCC(O)c1ccc(F)cc1 (stereo unspecified)
3. N=C1NCCO1
4. O=C(O)CCNC(=O)C1CC1
5. CC(C)CN(CC(C)C)C(=O)CC(=O)N(CC(C)C)CC(C)C
6. O=C(O)C1CSCN1C(=O)c1ccc(Cl)cc1 (stereo unspecified)
7. Cn1cc([N+](=O)[O-])cn1

1: 283 to 285 °C; 2: 65 to 67 °C; 3: 69 to 71 °C; 4: 107 to 109 °C; 5: 51 to 53 °C; 6: 60 to 62 °C; 7: 91 to 93 °C

Lab note: each molecule below needs its melting point filled in.
1. CCOc1ccc(S(=O)(=O)N(C)c2ccc(O)cc2)cc1
2. Cc1nn(-c2ccc(Br)cc2)cc1C(=O)O
3. Nc1ccc(F)c(N2CCS(=O)(=O)CC2)c1
4. CCn1nc(C)c(C(C)=O)c1C
5. O=C(Nc1cc(Cl)ccc1C(=O)O)c1ccc(F)cc1
6. COCC(C)n1cc(C(=O)O)c(C)n1 (stereo unspecified)

["129 to 133 °C", "229 to 231 °C", "181 to 183 °C", "30 to 32 °C", "250 to 252 °C", "114 to 116 °C"]

Lab note: each molecule below needs its melting point filled in.
1. COCCOc1ccc(C(C)=O)cc1
2. O=S(=O)(NCc1ccccc1)c1cccs1
3. Sc1nnc(-c2ccccc2)n1-c1ccccc1

1: 38 to 40 °C; 2: 145 to 150 °C; 3: 292 to 294 °C

Lab note: each molecule below needs its melting point filled in.
1. Cc1nn(-c2ccc(Cl)cc2)c(C)c1C(=O)O
2. CCc1nc2ccccc2n1C1CCNCC1
3. O=Cc1c[nH]c2cccc(F)c12
4. O=Cc1cccc(OC(C(=O)O)c2ccccc2)c1 (stereo unspecified)

1. 219 to 221 °C
2. 99 to 101 °C
3. 169 to 171 °C
4. 98 to 100 °C

Lab note: each molecule below needs its melting point filled in.
1. Nc1cccc2c1CN(c1nccs1)C2
2. CCN(CC)S(=O)(=O)c1ccc(CC#N)nc1

1. 119 to 121 °C
2. 72 to 74 °C
